Origin of values: patent US20240043504A1

Reported Kd values for a set of binders
Target: SARS-COV-2 RBD extracellular domain expressed with a C-terminal mouse IgG2a (SARS-COV-2 RBD-mFc) (SARS-CoV-2)
Assay: SPR, captured mAb, RBD-mFc in solution, 37 C
All answers are understood in nM, so give the number only.

Take a look at these entries with their results.
binder	Kd, nM
mAb11006 (antibody, V domains shown) VH: EVQLVESGGGLVQPGGSLRLSCAASGFIVSRNYMSWVRQAPGKGLEWVSVIYSGGSTFYADSVKGRFTISRHNSKNTLYLQMNSLKAEDTAVYYCARELRGYFDYWGQGTLVTVSS VL: DIQLTQSPSFLSASVGDRVTITCWASQGISSYLAWYQQKPGKAPKLLIYAASTLQSGVPSRFSGSGSGTEFTLTISSLQPEDFATYYCQLLNSYPYTFGQGTKLEIKR	0.197
mAb10984 (antibody, V domains shown) VH: EVQLVESGGGLVQPGGSLRLSCAASGLTVNRNYMSWVRQAPGKGLEWVSLIYSGGSTYYADSVKGRFTISRDNSKNTLYLQMNSLRLEDTAVYYCARGELGIPYGMDVWGQGTTVTVSS VL: QSVLTQPPSVSAAPGQKVTISCSGSSSNIGNNYVSWYQQLPGTAPKLLIYDNNKRPSGIPDRFSGSKSGTSATLGITGLQTGDEADYYCGTWDSSLSAGVFGGGTKLTVLG	0.0404

Input line: Given mAb10955 (antibody, V domains shown) VH: EVQLVESGGGLVQPGGSLRVSCAASGFTVSRNYMSWVRQAPGKGLEWVSVIYSGGSTFYADSVKGRFTISRDNSKNTLYLQMNSLRAEDTAIYYCARYIPRFDPWGQGTLVTVSS VL: DIQMTQSPSSLSASVGDRVTITCQASQDISNYLNWFQQKPGRAPKLLIYDASNLETGVPSRFSGSGSGTDFTFTISSLQPEDIATYYCQQYDNLPITFGQGTRLEIKR , state its recorded Kd.
Output line: 0.202
